From: patent US5747334

target.or.system: 7E11-C5 monoclonal antibody
assay.summary: competitive ELISA, peptide 1.75-1130 nM pre-incubated with 7E11-C5 at 30 ng/ml (0.2 nM), LNCaP extract on plate
No end group written: not given here.
measure: IC50

Using the record for LYANPGMYSRLHSPA-NH2 [peptide SEQ ID NO 31 (amide form)] , state its measured IC50.
0.16 µM
